# testName: Cytotoxicity against rat PC12 cells after 24 hrs by MTT assay
# Format: cell-based, PC-12
Overview of reported CC50 at 24 h across a group of compounds:

- smiles: "Cc1c(C(=O)OCC#CCN2CCN(c3ccc(Br)cc3C#N)CC2)sc2ncnc(N3CCOCC3)c12"
  CC50 at 24 h, µg/mL: 122
- smiles: "COc1ccc(N2CCN(CC#CCOC(=O)c3sc4ncnc(N5CCCCC5)c4c3C)CC2)cc1"
  CC50 at 24 h, µg/mL: 140
- smiles: "COc1cccc(N2CCN(CC#CCOC(=O)c3sc4ncnc(N5CCCCC5)c4c3C)CC2)c1"
  CC50 at 24 h, µg/mL: 144
- smiles: "Cc1c(C(=O)OCC#CCN2CCN(c3cc(C4CC4)ccc3C#N)CC2)sc2ncnc(N3CCCCC3)c12"
  CC50 at 24 h, µg/mL: 148
- smiles: "COc1ccc(N2CCN(CC#CCOC(=O)c3sc4ncnc(N5CCOCC5)c4c3C)CC2)cc1"
  CC50 at 24 h, µg/mL: 144
